Data origin, for the record: patent US20230095569A1

- study-target: human Claudin18.2 (CLDN18.2) (human, UniProt P56856 1-261)
- test-summary: cell-based or functional assay
Please provide measured CDC EC50 for the entries that follow.
Numbers only, in µM.

Okay, here is my list. What is CDC EC50 for each of these?
1. chAb20 (antibody, V domains shown) VH: EVMLVESGGGLVKPGGSLKLSCVASGFTFSSYTMSWVRQTPEKRLEWVATIIGGYGNTYYSDSVKGRITISRDSAKNTLYLQMISLRSEDTALYYCTRLGQTQRNAMDYWGQGTSVTVSS VL: DILMTQSPSSLSVSAGEKVTMNCKSSQSLLNSGNQKNYLAWYQQKPGQPPKLLIYGASTRESGVPDRFTGSGSGTDFTLTISSVQAEDLAVYYCQNDYYYPFTFGAGTKLEL
2. chAb29 (antibody, V domains shown) VH: EVLLQQSGPELVKPGASVKIPCKASGYTLTDHSMDWVKQSHGKSLEWIGNILPNNGGNIYNQKFRGKATLTVDKSSSTAYMELRSLTSEDTAVYNCARGHYGNSFAYWGQGTLVIVS VL: DIVMTQSPSSLTVRAGEKVTIYCKSSQSLFNSGNQKNYLTWYQQKPGQPPKLLIYWASTRESGVPHRFTGSGSGTDFTLTISSMQADDLATYYCQNGYFFPYTFGGGTKLEIK

Data returned:
0.00882
0.0127
